assay: in vitro; settings: chlorocebus sabaeus, VERO-E6 cells (Vero C1008), uninfected, CC50
The threshold is 7 µM. Values of CC50 at 48 h beneath it are tagged Yes; values meeting or exceeding it are tagged No.

| MOLECULE | GROUP |
| --- | --- |
| CN(C)C(=O)C(CCN1CCC(O)(c2ccc(Cl)cc2)CC1)(c1ccccc1)c1ccccc1 [LOPERAMIDE] | No |
| CC(C)C[C@H](NC(=O)CNC(=O)c1cc(Cl)ccc1Cl)B(O)O [IXAZOMIB] | Yes |

# strict comparison: is reported CC50 at 48 h < 7 µM? input = N#Cc1cc2c(OCC(O)CN3CCN(C(c4ccccc4)c4ccccc4)CC3)cccc2[nH]1 (racemic; form 1)
No

# strict comparison: is reported CC50 at 48 h < 7 µM? input = CN1[C@@H]2CC[C@H]1C[C@@H](OC(=O)c1cc(Cl)cc(Cl)c1)C2 [BEMESETRON]
Yes

# strict comparison: is reported CC50 at 48 h < 7 µM? input = N#Cc1cccc(C#N)c1-c1nc2c3ccc(Cl)cc3c3ccccc3c2[nH]1
No

# strict comparison: is reported CC50 at 48 h < 7 µM? input = CC1=NN(c2ccc(C)c(C)c2)C(=O)/C1=N\Nc1cccc(-c2cccc(C(=O)O)c2)c1O [ELTROMBOPAG]
Yes
